B1: library; a variant is named by its letters at N, in order (parent)
chain: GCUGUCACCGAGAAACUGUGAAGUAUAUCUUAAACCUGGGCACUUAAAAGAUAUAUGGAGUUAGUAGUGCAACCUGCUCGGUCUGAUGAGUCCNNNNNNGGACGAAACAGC

- Variants of: B1
- assay-procedure: normalized RNA/DNA level with ligand (relative to sTRSVctl = 100) (log10 (% of sTRSVctl)); HEK293T; ligand: cyclic di-GMP (c-di-GMP-II aptamer); ligand concentration (+) RNA-Seq: 1 mM; higher = less ribozyme self-cleavage, higher mRNA level
- settings: reporter: mCherry (pCS4076), ligand present: yes
Assign normalized RNA/DNA level with ligand (log10) to each entry below.
Answers are plain numbers.

Problem: Look up normalized RNA/DNA level with ligand (log10) of `CGUGGU` and report it.
Solution: 1.87

Problem: Look up normalized RNA/DNA level with ligand (log10) of `UUGGGA` and report it.
Solution: 1.72

Problem: Look up normalized RNA/DNA level with ligand (log10) of `AGUCAC` and report it.
Solution: 1.81

Problem: Look up normalized RNA/DNA level with ligand (log10) of `CCGUAU` and report it.
Solution: 1.69

Problem: Look up normalized RNA/DNA level with ligand (log10) of `GUUUUC` and report it.
Solution: 1.86

Could I get normalized RNA/DNA level with ligand (log10) for every one of these entries?
1. GACUCU
2. CUUCAC
3. GAGGAC
4. UGAAGA
5. GGACCC
6. UCGCAC
7. UGUAGU
8. CGCUUC

Solution:
1.84
1.86
1.79
1.77
1.93
1.86
1.86
1.81

Could I get normalized RNA/DNA level with ligand (log10) for every one of these entries?
1. CCAAAC
2. UACGGC

Solution:
[1.75, 1.84]

Could I get normalized RNA/DNA level with ligand (log10) for every one of these entries?
1. UGUAGC
2. ACGUAU
3. GAGCCA

Solution:
1. 1.83
2. 1.54
3. 1.87

Hey, just so you know, these numbers are from the supplement of paper PMC6757056.
